Test system: MALME-3M melanoma
ASSAY_METHOD_TEXT: NCI tumour cell line growth inhibition, 48 h
Below is a list of entries, each paired with its recorded TGI value.
READOUT_NAME: TGI

>  <STRUCTURE_SMILES>
O=C1C(Cl)=C(N2CCOCC2)C(=O)c2ccccc21

>  <READOUT_NAME>
TGI

>  <MEASURED>
4.85 µM

$$$$
>  <STRUCTURE_SMILES>
COc1ccc(CN=C2Nc3ccncc3S(=O)(=O)N2c2ccccc2)cc1

>  <READOUT_NAME>
TGI

>  <MEASURED>
> 100 µM

$$$$
>  <STRUCTURE_SMILES>
CN(C)c1ccc(/C=C2\N=C(c3ccc(N)cc3)OC2=O)cc1

>  <READOUT_NAME>
TGI

>  <MEASURED>
> 100 µM

$$$$
